These data points were gathered from patent US20240116850A1.

test: Dynamic Vapor Sorption (DVS) hygroscopicity; format: physicochemical; settings: summary grade Good/Moderate/Poor
endpoint.label: DVS (matrix of results from solid form characterization)

CC(C)[C@@H]1[C@H]2CC[C@H](C2)[C@H]1N.O=C(O)/C=C/C(=O)O [Fumarate Type A]    Good
CC(C)[C@@H]1[C@H]2CC[C@H](C2)[C@H]1N [L-malate Type C]    Good
CC(C)[C@@H]1[C@H]2CC[C@H](C2)[C@H]1N (racemic) [Phosphate Type B]    Poor
CC(C)[C@@H]1[C@H]2CC[C@H](C2)[C@H]1N.O=C(O)/C=C\C(=O)O [Maleate Type A]    Good

# input for lookup
Please report DVS (matrix of results from solid form characterization) for the following compound: CC(C)[C@@H]1[C@H]2CC[C@H](C2)[C@H]1N.O=C(O)CCC(=O)O [Succinate Type A]
Good

---

experiment: physchem; details: pH 6.5, fassif, thermodynamic from solid, FaSSIF solubility
endpoint.label: solubility

Report measured solubility; entry is CC(C)[C@@H]1[C@H]2CC[C@H](C2)[C@H]1N.O=C(O)CCC(=O)O [Succinate Type A]
> 28 mg/mL

---

Test system: MUC1-fs
Experiment: High-content imaging assay of MUC1-fs total cytoplasm intensity in P cells
Format: cell-based
Details: MUC1-fs total cytoplasm intensity, P cells, 48 hr incubation
Method: P cells were seeded 24 hr prior to compound treatment at a density of 12,000 cells/well in 384 well Cell Carrier Ultra plates (6057308, Perkin Elmer), pre-coated with 0.25 mg/mL Synthemax 11 SC Substrate (3535, Corning). […] Following image analysis, three parameters were selected, i) MUC1-fs and ii) MUC1-wt total cytoplasm intensity (averaged per cell) and iii) cell number as was detected by Hoechst 33342 stained nuclei. […]
endpoint.label: EC50 (µM)
Numbers only here, please. The scale is µM.

Cl.N[C@H]1[C@@H]2CC[C@@H](C2)[C@@H]1C1CCC1 (single isomer, unassigned) [Compound 114-P1]    29.9

Now take the following compound into account.
Specify EC50 for Cl.N[C@@H]1[C@@H]2CC[C@@H](C2)[C@H]1C1CCC1 (racemic) [Compound 113] and stop.
0.478

---

test: Equilibrium solubility in water and bio-relevant media (SGF, FaSSIF, FeSSIF); conditions: fed state simulated intestinal fluid (FeSSIF), pH 5, fessif, thermodynamic from solid, FeSSIF solubility, Fed State Simulated Intestinal Fluid (pH 5.0)
endpoint.label: solubility

Answer with the recorded solubility for the compound listed here: CC(C)[C@@H]1[C@H]2CC[C@H](C2)[C@H]1N.O=C(O)/C=C\C(=O)O [Maleate Type A]
> 26 mg/mL

Read the entry CC(C)[C@@H]1[C@H]2CC[C@H](C2)[C@H]1N (racemic) [Phosphate Type B] and write its reported solubility.
> 27 mg/mL

Supply solubility value. Item: CC(C)[C@@H]1[C@H]2CC[C@H](C2)[C@H]1N.O=C(O)/C=C/C(=O)O [Fumarate Type A]
17.1 mg/mL

---

test system: MUC1-wt; test: High-content imaging assay of MUC1-wt total cytoplasm intensity in P cells; assay type: cell-based; details: MUC1-wt; DMSO = 0, JQ1 (250 nM) = −100% activity
endpoint.label: WT ECMax (%)
Numeric answer only, unit % assumed.

Cl.N[C@@H]1[C@@H]2CC[C@@H](C2)[C@H]1C1CC1 (racemic) [Compound 109]    −12.5
Cl.N[C@@H]1[C@@H]2CC[C@@H](C2)[C@H]1C1CC1 (single isomer, unassigned) [Compound 109-P1]    9.06
CC(C)C[C@@H]1[C@H]2CC[C@H](C2)[C@H]1N.Cl (racemic) [Compound 111]    10.58

Would you kindly look at the next entry?
Annotate the molecule CC(C)C[C@H]1[C@H]2CC[C@H](C2)[C@@H]1N.Cl (single isomer, unassigned) [Compound 112-P1] with its measured WT ECMax.
9.15

---

system: MUC1-fs; test: High-content imaging assay of MUC1-fs total cytoplasm intensity in P cells; type: cell-based; details: MUC1-fs total cytoplasm intensity, P cells, 48 hr incubation
endpoint.label: pEC50
// field semantics: pEC50 = negative decimal log of concentration (mol/L)

Below are worked cases with known answers.
CCC[C@H]1[C@H]2CC[C@H](C2)[C@@H]1N.Cl [Compound 108-P1]    4.52
CCC[C@@H]1[C@H]2CC[C@H](C2)[C@H]1N.Cl [Compound 107-P1]    4.59
Cl.N[C@H]1[C@H]2CC[C@H](C2)[C@@H]1C1CC1 (single isomer, unassigned) [Compound 109-P2]    6.28
CC(C)[C@H]1[C@H]2CC[C@H](C2)[C@@H]1N.Cl [Compound 102]    5.06
C[C@@H]1[C@H]2CC[C@H](C2)[C@H]1N.Cl (single isomer, unassigned) [Compound 104-P1, hydrochloride]    4.71
C[C@@H]1[C@H]2CC[C@H](C2)[C@H]1N.Cl (single isomer, unassigned) [Compound 104-P2, hydrochloride]    5.35
CC(C)[C@H]1[C@H]2CC[C@H](C2)[C@H]1N.Cl (racemic) [Compound 103, hydrochloride]    5.67
Cl.N[C@H]1[C@@H]2CC[C@@H](C2)[C@@H]1C1CCCC1 (single isomer, unassigned) [Compound 117-P1]    4.59

Report pEC50 for Cl.N[C@@H]1[C@H]2CC[C@H](C2)[C@H]1C1CC1 (single isomer, unassigned) [Compound 110-P2, hydrochloride]
5.47

Could you please provide reported pEC50 for CC(C)(C)[C@@H]1[C@H]2CC[C@H](C2)[C@H]1N.Cl (racemic) [Compound 115] ? Thanks!
6.53

Specify pEC50 for Cl.N[C@@H]1[C@@H]2CC[C@@H](C2)[C@H]1C1CC1 (racemic) [Compound 109] and stop.
6.35

---

system: MUC1-fs; experiment: High-content imaging assay of MUC1-fs total cytoplasm intensity in P cells; assay type: cell-based; details: MUC1-fs; DMSO = 0, JQ1 (250 nM) = −100% activity
endpoint.label: ECMax (%)
Write down the numeric answer in % and omit the unit.

Take a look at these entries with their results.
CC(C)C[C@H]1[C@H]2CC[C@H](C2)[C@@H]1N.Cl (single isomer, unassigned) [Compound 112-P1]    26.46
Cl.N[C@H]1[C@@H]2CC[C@@H](C2)[C@@H]1C1CCCCC1 (single isomer, unassigned) [Compound 119-P1]    −14.14

Note: attention shifts to another entry.
Give the value of ECMax reported for the following: Cl.N[C@@H]1[C@@H]2CC[C@@H](C2)[C@H]1C1CCCC1 (single isomer, unassigned) [Compound 116-P1]
−10.6

---

system: MUC1-fs; assay: High-content imaging assay of MUC1-fs total cytoplasm intensity in P cells; assay type: cell-based; conditions: MUC1-fs; DMSO = 0, JQ1 (250 nM) = −100% activity
ECMax under -20% gets true (1), anything at or over -20% gets false (0).

Solved entries:
C[C@@H]1[C@H]2CC[C@H](C2)[C@H]1N.Cl (single isomer, unassigned) [Compound 104-P2]    true (1)
CC(C)[C@@H]1[C@@H]2CC[C@@H](C2)[C@H]1N.Cl [Compound 101]    true (1)
CCC[C@H]1[C@@H]2CC[C@@H](C2)[C@@H]1N.Cl [Compound 107-P2]    false (0)

Dear colleague, could you confirm whether ECMax of CC(C)(C)[C@@H]1[C@H]2CC[C@H](C2)[C@H]1N.Cl (racemic) [Compound 115] falls below -20%? Thanks.
true (1)

Check if ECMax falls below -20% for Cl.N[C@H]1[C@H]2CC[C@H](C2)[C@@H]1C1CCCCC1 (single isomer, unassigned) [Compound 118-P2] .
false (0)

Could you please tell me whether ECMax recorded for CCC[C@H]1[C@H]2CC[C@H](C2)[C@@H]1N.Cl (racemic) [Compound 108-rac] is less than -20%?
false (0)

hey, is ECMax for Cl.N[C@@H]1[C@H]2CC[C@H](C2)[C@H]1C1CCCC1 (single isomer, unassigned) [Compound 117-P2] lower than -20% or not?
false (0)

ECMax under -20%? Item: Cl.N[C@@H]1[C@@H]2CC[C@@H](C2)[C@H]1C1CCC1 (racemic) [Compound 113]
true (1)

Identify whether the compound Cl.N[C@@H]1[C@@H]2CC[C@@H](C2)[C@H]1C1CC1 (single isomer, unassigned) [Compound 109-P1] records ECMax below -20%.
true (1)

Lab log: compare recorded ECMax with -20%; is it strictly lower for Cl.N[C@H]1[C@@H]2CC[C@@H](C2)[C@@H]1C1CCC1 (single isomer, unassigned) [Compound 114-P1] ?
true (1)

Confirm or reject: ECMax of Cl.N[C@H]1[C@H]2CC[C@H](C2)[C@@H]1C1CCCC1 (single isomer, unassigned) [Compound 116-P2] lies strictly below -20%
false (0)

Lab note: confirm whether the reported ECMax for this compound is below -20%, equality not counting. compound: Cl.N[C@@H]1[C@H]2CC[C@H](C2)[C@H]1C1CCC1 (single isomer, unassigned) [Compound 114-P2]
false (0)

Does the reported ECMax of Cl.N[C@@H]1[C@@H]2CC[C@@H](C2)[C@H]1c1ccccc1 (racemic) [Compound 120] stay below -20%?
true (1)

A record lists CCC[C@@H]1[C@H]2CC[C@H](C2)[C@H]1N.Cl [Compound 107-P1] . Is its ECMax below -20%?
false (0)

Does the reported ECMax of the following compound sit strictly below -20%? Cl.N[C@H]1[C@@H]2CC[C@@H](C2)[C@@H]1C1CCCC1 (single isomer, unassigned) [Compound 117-P1]
false (0)
